I'd be grateful if you could share measured chromatographic logP for these entries.
- MEASUREMENT NOTES: logp (HCOOH), chemicophysical data
- ASSAY CONTEXT: HCOOH (formic acid)
Give bare numbers.

Below, each entry is followed by its recorded chromatographic logP result.
Cc1ccc2c(c1)[C@H](Nc1ncc(Br)c(N)n1)[C@@H](C)C2 [Example 1.67] :: 1.3
Cc1ccc2c(c1)[C@H](Nc1nc(N)c(C#N)c(-c3ccccc3F)n1)[C@@H](C)C2 [Example 1.104] :: 3.65
Nc1nc(N[C@@H]2CCCc3ccccc32)ncc1C(F)(F)F [Example 1.108] :: 1.64
C#Cc1cnc(N[C@H]2c3cc(C)ccc3C[C@@H]2C)nc1N [Example 1.119] :: 1.43
Cc1ccc2c(c1)[C@H](Nc1ncc(C#C[Si](C)(C)C)c(N)n1)[C@@H](C)C2 [Example 1.98] :: 2.28

Provide chromatographic logP for all items below, preserving their order.
1. N#Cc1cnc(N[C@@H]2CCCc3ccccc32)nc1N [Example 1.30]
2. CCc1nc(N[C@@H]2CCc3ccccc32)nc(N)c1C#N [Example 1.62]

1: 1.92; 2: 2.18
